# Tested target: hemagglutinin (HA) of influenza virus B/Lee/40 (Old) (influenza B virus) (UniProt P03460)
# Sequence (P03460 16-584 limits assumed): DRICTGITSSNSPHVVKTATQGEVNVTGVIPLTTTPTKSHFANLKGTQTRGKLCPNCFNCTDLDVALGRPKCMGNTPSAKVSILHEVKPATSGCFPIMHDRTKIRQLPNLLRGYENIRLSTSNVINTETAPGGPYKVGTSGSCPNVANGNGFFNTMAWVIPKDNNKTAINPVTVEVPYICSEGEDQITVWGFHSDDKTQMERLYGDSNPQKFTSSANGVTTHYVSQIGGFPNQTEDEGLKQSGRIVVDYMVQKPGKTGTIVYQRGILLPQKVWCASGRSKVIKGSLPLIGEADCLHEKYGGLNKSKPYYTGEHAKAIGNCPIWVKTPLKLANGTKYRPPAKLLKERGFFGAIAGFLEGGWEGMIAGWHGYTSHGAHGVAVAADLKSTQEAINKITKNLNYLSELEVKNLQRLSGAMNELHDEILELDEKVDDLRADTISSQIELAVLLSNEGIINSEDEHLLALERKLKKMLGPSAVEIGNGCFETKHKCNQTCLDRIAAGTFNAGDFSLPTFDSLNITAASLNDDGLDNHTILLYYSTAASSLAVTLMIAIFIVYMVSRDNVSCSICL
# Experiment summary: cell-based or functional assay
Catalogue of binders with associated neutralization titer
# output: bare number, implied unit nM

Binder: MD1223 (bispecific antibody) EVQLVESGGGLVQPGGSLKLSCAASGFTFSTSWMYWLRQAPGKGLEWVSVINTDGGTYYADSVKDRFTISRDNAKDTLYLQMSSLKSEDTAVYYCAKDWGGPEPTRGQGTQVTVSSAAAGGGGSGGGGSGGGGSGGGGSGGGGSGGGGSGGGGSEVQLVESGGGLVQPGGSLRLSCAATGFTLENKAIGWFRQTPGSEREGVLCISKSGSWTYYTDSMRGRFTISRDNAENTVYLQMDSLKPEDTAVYYCATTTAGGGLCWDGTTFSRLASSWGQGTQVTVSS
neutralization titer / nM: 18

Please report the recorded neutralization titer for MD1221 (VHH) EVQLVESGGGLVQPGGSLRLSCAATGFTLENKAIGWFRQTPGSEREGVLCISKSGSWTYYTDSMRGRFTISRDNAENTVYLQMDSLKPEDTAVYYCATTTAGGGLCWDGTTFSRLASSWGQGTQVTVSSAAAGGGGSGGGGSGGGGSGGGGSGGGGSGGGGSGGGGSEVQLVESGGGLVQPGGSLRLSCAATGFTLENKAIGWFRQTPGSEREGVLCISKSGSWTYYTDSMRGRFTISRDNAENTVYLQMDSLKPEDTAVYYCATTTAGGGLCWDGTTFSRLASSWGQGTQVTVSS .
32.5

What value of neutralization titer has been recorded for this entry: MD1222 (bispecific antibody) EVQLVESGGGLVQPGGSLRLSCAATGFTLENKAIGWFRQTPGSEREGVLCISKSGSWTYYTDSMRGRFTISRDNAENTVYLQMDSLKPEDTAVYYCATTTAGGGLCWDGTTFSRLASSWGQGTQVTVSSAAAGGGGSGGGGSGGGGSGGGGSGGGGSGGGGSGGGGSEVQLVESGGGLVQPGGSLKLSCAASGFTFSTSWMYWLRQAPGKGLEWVSVINTDGGTYYADSVKDRFTISRDNAKDTLYLQMSSLKSEDTAVYYCAKDWGGPEPTRGQGTQVTVSS
12.7
